Each entry below carries its recorded IC50.
target: YopH (Yersinia enterocolitica, UniProt P15273)
Sequence (P15273 whole entry, looked up): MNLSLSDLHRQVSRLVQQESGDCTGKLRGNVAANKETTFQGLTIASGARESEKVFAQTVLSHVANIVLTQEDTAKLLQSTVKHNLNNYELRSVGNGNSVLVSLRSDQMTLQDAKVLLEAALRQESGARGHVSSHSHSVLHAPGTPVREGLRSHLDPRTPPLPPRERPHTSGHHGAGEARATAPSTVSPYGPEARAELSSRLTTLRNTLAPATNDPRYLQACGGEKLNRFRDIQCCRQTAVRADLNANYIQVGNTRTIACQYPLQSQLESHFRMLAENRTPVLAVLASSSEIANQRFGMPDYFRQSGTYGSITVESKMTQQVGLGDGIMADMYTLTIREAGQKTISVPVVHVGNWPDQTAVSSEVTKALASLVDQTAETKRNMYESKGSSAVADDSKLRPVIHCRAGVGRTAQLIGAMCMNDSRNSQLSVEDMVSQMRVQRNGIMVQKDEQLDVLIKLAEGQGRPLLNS
parameter measured: IC50

* O=C(Nc1ccc(N2CCOCC2)cc1)C(c1ccccc1)S(=O)(=O)O (centres unmarked) [Compound L319M68] | > 200 µM
* O=C(CS(=O)(=O)O)Nc1cnc2ccccc2c1 | > 100 µM
* O=C(Nc1cccc(OCc2ccccc2)c1)C(c1ccccc1)S(=O)(=O)O (centres unmarked) [Compound L319M52] | > 200 µM
* Cc1c(Br)cc(NC(=O)C(c2ccccc2)S(=O)(=O)O)cc1Br (centres unmarked) [Compound L319M34] | > 200 µM
* O=C(C(c1ccccc1)S(=O)(=O)O)N1CCCC2CCCCC21 (centres unmarked) [Compound L319N53] | > 200 µM
